Item-by-item account of Relative Proportion of compound after incubation of 5-MeO-DMT
test system: human hepatocytes; test: Metabolite identification after incubation of 5-MeO-DMT with human hepatocytes; details: 5-MeO-DMT free base 10 μM, up to 120 minutes
measured attribute: Relative Proportion of compound after incubation of 5-MeO-DMT (%)

• CN(C)CCc1c[nH]c2ccc(O)cc12 = 5
• COc1ccc2[nH]cc(CC[N+](C)(C)[O-])c2c1 [5-MeO-DMT-N-oxide] = 1
• COc1ccc2[nH]cc(CCO)c2c1 = 25

###

test: Metabolic stability in Hμrel human hepatocyte co-culture model; conditions: human, Hμrel HumanPool primary human hepatocyte co-culture
measured attribute: half-life at 1 μM (days)

* COc1ccc2[nH]cc(CC(=O)O)c2c1 [5-MIAA, 5-methoxyindole-3-acetic acid] | 10.7

Measured values drawn from patent US20240108602A1 for this set.
